biological target: EGFR Del19/T790M/C797S (Homo sapiens, UniProt P00533, C797S/DEL746-750/T790M); assay: Biochemical EGFR kinase inhibition assay (Lance Ultra TR-FRET), triple mutant del19/T790M/C797S; details: Km ATP; read-out: IC50 Del19/T790M/C797S (nM), Km ATP
Sequence (P00533 with tags, fused parts or gaps DEL746-750/T790M/C797S): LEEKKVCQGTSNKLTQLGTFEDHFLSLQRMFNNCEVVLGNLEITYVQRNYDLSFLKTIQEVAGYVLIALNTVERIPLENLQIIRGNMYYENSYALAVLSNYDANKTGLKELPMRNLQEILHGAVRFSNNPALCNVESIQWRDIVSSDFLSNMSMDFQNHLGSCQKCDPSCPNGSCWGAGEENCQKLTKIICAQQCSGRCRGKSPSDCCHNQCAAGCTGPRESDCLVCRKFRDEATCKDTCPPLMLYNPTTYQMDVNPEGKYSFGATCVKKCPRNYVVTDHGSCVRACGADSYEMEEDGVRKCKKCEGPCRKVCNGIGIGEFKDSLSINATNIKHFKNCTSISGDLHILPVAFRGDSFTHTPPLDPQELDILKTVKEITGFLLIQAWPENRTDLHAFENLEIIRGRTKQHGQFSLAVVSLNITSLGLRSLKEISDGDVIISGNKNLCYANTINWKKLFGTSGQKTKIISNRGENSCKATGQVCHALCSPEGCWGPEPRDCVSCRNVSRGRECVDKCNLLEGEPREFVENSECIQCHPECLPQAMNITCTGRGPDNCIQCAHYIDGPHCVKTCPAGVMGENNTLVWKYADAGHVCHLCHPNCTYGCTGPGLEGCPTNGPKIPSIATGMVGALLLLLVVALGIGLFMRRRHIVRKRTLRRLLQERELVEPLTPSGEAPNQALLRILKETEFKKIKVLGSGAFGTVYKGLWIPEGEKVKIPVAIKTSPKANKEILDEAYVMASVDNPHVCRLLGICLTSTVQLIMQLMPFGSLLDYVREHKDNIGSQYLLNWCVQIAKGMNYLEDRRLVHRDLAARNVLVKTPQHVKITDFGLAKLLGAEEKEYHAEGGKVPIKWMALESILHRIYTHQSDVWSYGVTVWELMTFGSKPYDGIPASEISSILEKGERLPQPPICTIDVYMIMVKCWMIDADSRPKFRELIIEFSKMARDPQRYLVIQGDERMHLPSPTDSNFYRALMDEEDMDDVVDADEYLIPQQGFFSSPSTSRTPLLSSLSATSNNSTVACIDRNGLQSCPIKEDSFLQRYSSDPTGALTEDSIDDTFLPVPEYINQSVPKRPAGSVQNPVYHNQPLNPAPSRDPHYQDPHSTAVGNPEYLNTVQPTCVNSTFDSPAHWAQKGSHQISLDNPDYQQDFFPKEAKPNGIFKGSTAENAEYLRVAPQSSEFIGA
// values below are reported IC50

Can you look up the measured IC50 of CC1(CO)CCN(c2cc(Nc3ccnc(-c4cnn(S(=O)(=O)C5CC5)c4)n3)ncc2C#CC2CCS(=O)(=O)C2)CC1 (stereo not shown) [Example 437] for me?
0.1 nM

Form field: reported IC50 of O=C(c1ccc(C#Cc2cnc(Nc3ccnc(-c4cnn(S(=O)(=O)C5CC5)c4)n3)cc2NC[C@H]2CC[C@H](CO)CC2)cc1)N1CCC(O)CC1 [Example 443]
4.3 nM

Return reported IC50; argument: CC1(O)CCN(c2cc(Nc3ccnc(-c4cnn(S(=O)(=O)C5CC5)c4)n3)ncc2C#Cc2ncc(CN3CCOCC3)cn2)CC1 [Example 364]
0.2 nM

What does the record list as IC50 for O=S(=O)(C1CC1)n1cc(-c2nccc(Nc3cc(N4CCCC(O)C4)c(C#Cc4cnn(CC(F)(F)F)c4)cn3)n2)cn1 (stereo not shown) [Example 343] ?
2.6 nM

Need IC50 of CN(C)CCC1CCN(c2cc(Nc3ccnc(-c4cnn(S(=O)(=O)C5CC5)c4)n3)ncc2C#Cc2cnn(CC(F)(F)F)c2)CC1 [Example 349] , thanks.
1.5 nM

Consider the compound CC1(CO)CCN(c2cc(Nc3ccnc(-c4cnn(S(=O)(=O)C5CC5)c4)n3)ncc2C#Cc2ccc(C(=O)N3CCC(O)CC3)cc2)CC1 [Example 446] and give its measured IC50.
1 nM

Reported IC50 for O=S(=O)(C1CC1)n1cc(-c2nccc(Nc3cc(N4CCC(F)(CO)CC4)c(C#Cc4cnn(C(F)(F)F)c4)cn3)n2)cn1 [Example 338] : what is it?
0.3 nM

* * *

biological target: EGFR Del19/C797S (Homo sapiens, UniProt P00533, C797S/DEL746-750); assay: Biochemical EGFR kinase inhibition assay (Lance Ultra TR-FRET), double mutant del19/C797S; details: ATP at Km; read-out: IC50 Del19/C797S (nM), Km ATP
Sequence (P00533 with tags, fused parts or gaps DEL746-750/C797S): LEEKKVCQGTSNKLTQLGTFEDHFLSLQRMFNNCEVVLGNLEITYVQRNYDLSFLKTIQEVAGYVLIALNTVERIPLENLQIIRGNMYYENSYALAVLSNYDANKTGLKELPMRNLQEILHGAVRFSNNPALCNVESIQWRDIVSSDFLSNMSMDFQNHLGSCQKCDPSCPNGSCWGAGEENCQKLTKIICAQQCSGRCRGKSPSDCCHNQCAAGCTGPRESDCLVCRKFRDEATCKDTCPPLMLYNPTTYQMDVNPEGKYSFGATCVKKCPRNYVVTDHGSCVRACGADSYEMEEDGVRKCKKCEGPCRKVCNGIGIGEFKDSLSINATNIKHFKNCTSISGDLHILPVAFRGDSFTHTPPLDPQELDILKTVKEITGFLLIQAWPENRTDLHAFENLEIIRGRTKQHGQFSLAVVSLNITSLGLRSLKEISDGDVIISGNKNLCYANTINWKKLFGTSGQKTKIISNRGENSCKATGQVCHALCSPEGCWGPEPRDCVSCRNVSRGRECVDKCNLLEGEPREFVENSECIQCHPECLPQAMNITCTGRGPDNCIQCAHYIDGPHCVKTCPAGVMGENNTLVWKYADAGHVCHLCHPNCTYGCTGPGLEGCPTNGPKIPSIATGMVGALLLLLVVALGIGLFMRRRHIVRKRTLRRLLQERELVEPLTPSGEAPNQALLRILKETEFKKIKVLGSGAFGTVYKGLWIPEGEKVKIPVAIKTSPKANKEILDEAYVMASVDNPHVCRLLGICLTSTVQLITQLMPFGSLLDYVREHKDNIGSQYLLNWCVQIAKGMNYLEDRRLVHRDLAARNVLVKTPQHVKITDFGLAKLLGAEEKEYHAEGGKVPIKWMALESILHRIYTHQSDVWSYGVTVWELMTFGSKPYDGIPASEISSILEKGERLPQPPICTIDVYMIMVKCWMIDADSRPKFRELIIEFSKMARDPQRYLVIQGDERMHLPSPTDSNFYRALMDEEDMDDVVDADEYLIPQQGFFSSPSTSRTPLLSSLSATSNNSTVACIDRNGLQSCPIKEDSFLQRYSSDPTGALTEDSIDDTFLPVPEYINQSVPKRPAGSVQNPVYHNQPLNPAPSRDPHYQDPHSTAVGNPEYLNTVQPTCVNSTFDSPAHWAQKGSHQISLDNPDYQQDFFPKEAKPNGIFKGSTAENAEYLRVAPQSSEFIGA
Experimental Readout: IC50 (nM)
Express your answer in nM, writing the number without its unit.

Example cases with answers are listed next.
{"Compound": "CC1(CO)CCN(c2cc(Nc3ccnc(-c4cnn(S(=O)(=O)C5CC5)c4)n3)ncc2C#CC2CCCC2)CC1", "Unit Abbrev": "nM", "Val": 8.7}
{"Compound": "CC1(CO)CCN(c2cc(Nc3ccnc(-c4cnn(CC(F)F)c4)n3)ncc2C#Cc2cnn(C(F)(F)F)c2)CC1", "Unit Abbrev": "nM", "Val": 24.2}
{"Compound": "Cc1nc(C#Cc2cnc(Nc3ccnc(-c4cnn(S(=O)(=O)C5CC5)c4)n3)cc2NC(C)C)cs1", "Unit Abbrev": "nM", "Val": 82}
{"Compound": "C#Cc1cnc(Nc2ccnc(-c3cnn(S(=O)(=O)C4CC4)c3)n2)cc1N1CCC(C)(CO)CC1", "Unit Abbrev": "nM", "Val": 1.3}
{"Compound": "C[C@]1(O)CC[C@@H](Nc2cc(Nc3ccnc(-c4cnn(S(=O)(=O)C5CC5)c4)n3)ncc2C#Cc2ccc(CN3CCOCC3)cc2)CC1", "Unit Abbrev": "nM", "Val": 18.3}

Can you share its IC50? I mean this compound: O=S(=O)(C1CC1)n1cc(-c2nccc(Nc3cc(N[C@H]4CC[C@@H](O)CC4)c(C#Cc4ccc(CN5CCOCC5)cn4)cn3)n2)cn1
2.3

Give the measured IC50 of O=S(=O)(C1CC1)n1cc(-c2nccc(Nc3cc(N[C@H]4CCC[C@@H](O)C4)c(C#Cc4ccc(CN5CCOCC5)cc4)cn3)n2)cn1 .
7.7

Which measured IC50 value corresponds to CN(C)Cc1ccc(C#Cc2cnc(Nc3ccnc(-c4cnn(S(=O)(=O)C5CC5)c4)n3)cc2N2CCC(C)(CO)CC2)cn1 ?
0.2

Looking for the measured IC50 of CC1(CO)CCN(c2cc(Nc3ccnc(-c4cnn(S(=O)(=O)C5CC5)c4)n3)ncc2C#CCCF)CC1 , can you help?
0.8

So what does the record say about IC50 for CC1(CO)CCN(c2cc(Nc3ccnc(-c4cnn(S(=O)(=O)C5CC5)c4)n3)ncc2C#Cc2cccnc2)CC1 ?
0.3

Item CC1(CO)CCN(c2cc(Nc3ccnc(-c4cnn(S(=O)(=O)C5CC5)c4)n3)ncc2C#CC2CC(C(C)(C)O)C2)CC1 (stereo not shown) has what recorded IC50?
1.1

Looking for the measured IC50 of CN(C)Cc1ccc(C#Cc2cnc(Nc3ccnc(-c4cnn(S(=O)(=O)C5CC5)c4)n3)cc2N2CCC(C)(CO)CC2)cc1 , can you help?
0.3

What does the data say about its IC50? Entry: CC(C)Nc1cc(Nc2ccnc(-c3cnn(S(=O)(=O)C4CC4)c3)n2)ncc1C#CCN1CCOCC1
43.4

* * *

biological target: UniProtKB P00533; experiment: Biochemical EGFR kinase inhibition assay (Lance Ultra TR-FRET), wildtype; conditions: IC50 WT (nM), 100 μM ATP
Experimental Readout: IC50

{"Compound": "Cn1cc(C#Cc2cnc(Nc3ccnc(-c4cnn(S(=O)(=O)C5CC5)c4)n3)cc2N[C@H]2CC[C@@](C)(O)CC2)cn1 [Example 81]", "Experimental Readout": "IC50", "Val": "> 10000 nM"}
{"Compound": "CS(=O)(=O)N1CCC(C#Cc2cnc(Nc3ccnc(-c4cnn(S(=O)(=O)C5CC5)c4)n3)cc2NCC2CCC(CO)CC2)C1 (stereo not drawn) [Example 400]", "Experimental Readout": "IC50", "Val": "> 10000 nM"}
{"Compound": "CN(C)CCC1CCN(c2cc(Nc3ccnc(-c4cnn(S(=O)(=O)C5CC5)c4)n3)ncc2C#Cc2cnn(CC(F)F)c2)CC1 [Example 303]", "Experimental Readout": "IC50", "Val": "206 nM"}
{"Compound": "CC1(CO)CCN(c2cc(Nc3ccnc(-c4cnn(S(=O)(=O)C5CC5)c4)n3)ncc2C#Cc2ccccc2F)CC1 [Example 257]", "Experimental Readout": "IC50", "Val": "> 10000 nM"}
{"Compound": "CN1CCC2(CC1)CCN(c1cc(Nc3ccnc(-c4cnn(S(=O)(=O)C5CC5)c4)n3)ncc1C#Cc1cnn(C(F)F)c1)CC2 [Example 321]", "Experimental Readout": "IC50", "Val": "5850 nM"}
{"Compound": "Cn1cc(C#Cc2cnc(Nc3ccnc(-c4cnn(S(=O)(=O)C5CC5)c4)n3)cc2N2CCC(CO)CC2)cn1 [Example 29]", "Experimental Readout": "IC50", "Val": "8000 nM"}
{"Compound": "CC1(CO)CCN(c2cc(Nc3ccnc(-c4cnn(S(=O)(=O)C5CC5)c4)n3)ncc2C#Cc2ccc(C(=O)N3CCOCC3)cc2)CC1 [Example 263]", "Experimental Readout": "IC50", "Val": "> 10000 nM"}
{"Compound": "Cn1cc(C#Cc2cnc(Nc3ccnc(-c4cnn(S(=O)(=O)C5CC5)c4)n3)cc2N2CCC(F)(C(F)(F)F)CC2)cn1 [Example 66]", "Experimental Readout": "IC50", "Val": "> 10000 nM"}

Which IC50 is listed for CC1(CO)CCN(c2cc(Nc3ccnc(-c4cnn(S(=O)(=O)C5CC5)c4)n3)ncc2C#CCNC(=O)C(F)(F)F)CC1 [Example 288] ?
7820 nM

Reported IC50 for CC1(O)CC2(CCN(c3cc(Nc4ccnc(-c5cnn(S(=O)(=O)C6CC6)c5)n4)ncc3C#Cc3cnn(C(F)(F)F)c3)CC2)C1 [Example 104] : what is it?
> 10000 nM

Data request, read-out IC50, for CC(=O)N1CCC(n2cc(C#Cc3cnc(Nc4ccnc(-c5cnn(S(=O)(=O)C6CC6)c5)n4)cc3N3CCC(=O)CC3)cn2)CC1 [Example 108]
> 10000 nM

Would you mind telling me what IC50 value was observed for Cn1ccc(C#Cc2cnc(Nc3ccnc(-c4cnn(S(=O)(=O)C5CC5)c4)n3)cc2N[C@H]2CC[C@@H](O)CC2)n1 [Example 106] ?
> 10000 nM

Which value of IC50 has been reported for CC(C)(O)C1CN(c2cc(Nc3ccnc(-c4cnn(S(=O)(=O)C5CC5)c4)n3)ncc2C#Cc2cnn(CCF)c2)C1 [Example 36] in the records?
> 10000 nM

I have this compound here, Cn1cc(C#Cc2cnc(Nc3ccnc(Nc4ccccc4S(C)(=O)=O)n3)cc2N2CCC(C)(CO)CC2)cn1 [Example 270] , and I need its recorded IC50.
> 10000 nM

Quick one: IC50 of Cn1cc(C#Cc2cnc(Nc3ccnc(-c4cnn(S(=O)(=O)C5CC5)c4)n3)cc2N[C@H]2CC[C@@H](NCCF)CC2)cn1 [Example 80] ?
> 10000 nM
